These measurements were taken from patent US20210380548A1.

- system: UniProt Q9H7Z6
- Sequence (Q9H7Z6 177-447): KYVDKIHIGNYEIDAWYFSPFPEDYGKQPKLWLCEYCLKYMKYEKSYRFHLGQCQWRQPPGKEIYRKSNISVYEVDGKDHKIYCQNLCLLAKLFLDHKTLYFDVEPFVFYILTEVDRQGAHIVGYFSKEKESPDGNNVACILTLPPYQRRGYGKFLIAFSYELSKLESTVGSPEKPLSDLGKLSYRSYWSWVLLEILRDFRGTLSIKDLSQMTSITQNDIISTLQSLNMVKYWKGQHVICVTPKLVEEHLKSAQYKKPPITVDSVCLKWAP
- test method notes: Revised Acetyltransferase Biochemical Assay, KAT8
pIC50: −log10 of the molar value.
parameter: pIC50

compound | parameter | data value
O=C(NCC(c1ccccc1)c1ncco1)C1=Nc2ccc(Cl)cc2S(=O)(=O)N1 (centres unmarked) [Example 182] | pIC50 | 4.61
Cc1noc(C(CNC(=O)C2=Nc3ccc(I)cc3S(=O)(=O)N2)c2ccccc2)n1 (centres unmarked) [Example 56] | pIC50 | 5.89
O=C(NCC(c1ccc(F)cc1)c1ncco1)C1=Nc2ccc(I)cc2S(=O)(=O)N1 (centres unmarked) [Example 164] | pIC50 | 4.46
O=C(NCC(c1cccc(I)c1)c1ncco1)C1=Nc2ccccc2S(=O)(=O)N1 (centres unmarked) [Example 160] | pIC50 | 5.31

P. COc1cc(C)cc(C(CNC(=O)C2=Nc3ccc(I)cc3S(=O)(=O)N2)c2ncco2)c1 (centres unmarked) [Example 196]
Q. Cc1ccccc1C(CNC(=O)C1=Nc2ccc(I)cc2S(=O)(=O)N1)c1ncco1 (centres unmarked) [Example 237]
Qu. When their pIC50 values are compared, which is larger, P or Q ? State the label of the item chosen.
Ans. Q
